measured target: T1, Duffy Antigen Receptor for Chemokines (DARC) (human, UniProt Q16570 1-336)
T1 chain: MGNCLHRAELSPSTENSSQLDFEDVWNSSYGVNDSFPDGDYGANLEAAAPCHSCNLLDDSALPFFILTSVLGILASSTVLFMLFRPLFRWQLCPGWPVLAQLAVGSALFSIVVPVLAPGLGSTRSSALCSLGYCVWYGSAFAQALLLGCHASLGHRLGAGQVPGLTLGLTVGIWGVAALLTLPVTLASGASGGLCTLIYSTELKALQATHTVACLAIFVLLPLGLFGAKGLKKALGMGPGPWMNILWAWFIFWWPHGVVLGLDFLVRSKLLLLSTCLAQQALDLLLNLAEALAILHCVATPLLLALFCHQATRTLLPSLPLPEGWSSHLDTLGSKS
measurement description: DARC binding
pKd: −log10 of the molar value.
assay readout: pKd

# count of solved cases: 5
VGPKSCQSSTEFYD: < 4.00
HLKILNTPNCALQIV (also called Pep2[SDF1]; Pep2(1-15)[SDF1]) [peptide 2(1-15)[SDF1]]: 4.72
DYFETSSQC: < 4.00
SYRRITSK: 4.66
SYRRI: < 4.00

So for SYRRITSSKCPKEAV (synthetic linear L-form peptide; also called Pep2[MCP1]; Pep2(1-15)[MCP1]) [peptide 2(1-15)[MCP-1]] , the logged pKd turned out to be 6.46

Please fill in: pKd reported for DYFETSSQCSKPGV (also called Pep2[MIP1α]; Pep2(1-14)[MIP1α]) [peptide 2(1-14)[MIP1α]] = < 4.00

So, TSSKC ? Its pKd was < 4.00

Item: CPKEAV | pKd: < 4.00

Lookup result for CSKPGV ; measured pKd: < 4.00
